test: Part A single-ascending-dose plasma PK in healthy subjects; assay type: in vivo, human; details: human, plasma, iv, 1 g, part A cohort 3, single 1.0 g, 3-h i.v. infusion

[
  {
    "compound": "CC1=C[C@@H]2CN(C(=O)N2OS(=O)(=O)O)[C@@H]1C(N)=O [DUR, Durlobactam]",
    "unit.string": "ng/mL",
    "Cmax": 20700
  }
]

###

test: Part A single-ascending-dose plasma PK in healthy subjects; type: in vivo, human; conditions: human, plasma, iv, 2 g, part A cohort 5, single 2.0 g, 3-h i.v. infusion

[
  {
    "mol.smiles": "CC1=C[C@@H]2CN(C(=O)N2OS(=O)(=O)O)[C@@H]1C(N)=O",
    "Cmax": "41500 ng/mL"
  }
]

###

assay: Part A single-ascending-dose plasma PK in healthy subjects; type: in vivo, human; details: human, plasma, iv, 1 g, part A cohort 4, single 1.0 g, 2-h i.v. infusion; read-out: AUC0–t

[
  {
    "molecule": "CC1=C[C@@H]2CN(C(=O)N2OS(=O)(=O)O)[C@@H]1C(N)=O [DUR, Durlobactam]",
    "AUC(0-t) [µg·h/mL]": 101
  }
]

###

assay: Part C single-dose drug-drug interaction plasma PK in healthy subjects; details: human, in vivo, 1 g, CL, part C cohort 13, SUL 1 g alone, day 1
measured.endpoint: clearance (mL/min)

[
  {
    "mol.smiles": "CC1(C)[C@H](C(=O)O)N2C(=O)C[C@H]2S1(=O)=O",
    "value.reported": 243
  }
]

###

assay: Urine PK (urinary excretion, renal clearance) in healthy subjects; details: human, urine, intravenous, 0.5 g, CLr, median, part B cohort 10, first 48 hours, dose over 48 hours 4.00 g (8 doses)

[
  {
    "compound": "CC1=C[C@@H]2CN(C(=O)N2OS(=O)(=O)O)[C@@H]1C(N)=O [DUR, Durlobactam]",
    "CL renal": "291 mL/min"
  }
]

###

Test: Part C single-dose drug-drug interaction plasma PK in healthy subjects
Conditions: human, in vivo, Vss, part C cohort 14, DUR 1 g + IMI-CIL 0.5 g, day 5
Protocol: The blank control matrix was made up of human plasma (BioreclamationIVT) diluted 1:1 with SigmaFast (reconstituted protease inhibitor cocktail tablet [product S8820; Sigma-Aldrich, St. Louis, MO] in 10 ml of water) for preparation of calibration standards and QC samples. […] A 100-μl aliquot of the supernatant was transferred to 96-well plates. […] AUC was calculated using the log-linear trapezoidal rule. […]
measured.endpoint: Vd

[
  {
    "mol.smiles": "CC1(C)C[C@@H]1C(=O)N/C(=C\\CCCCSC[C@H](N)C(=O)O)C(=O)O",
    "value.reported": "9.9 L"
  }
]

###

assay: Part B multiple-ascending-dose plasma PK in healthy subjects; assay type: in vivo, human; settings: human, plasma, iv, 0.25 g, part B cohort 9, 0.25 g q6h 3-h i.v. infusion, day 1, median

[
  {
    "mol.smiles": "CC1=C[C@@H]2CN(C(=O)N2OS(=O)(=O)O)[C@@H]1C(N)=O",
    "Tmax / h": 3
  }
]

###

assay: Part A single-ascending-dose plasma PK in healthy subjects; format: in vivo, human; details: human, plasma, iv, 4 g, part A cohort 6, single 4.0 g, 3-h i.v. infusion, median

[
  {
    "mol.smiles": "CC1=C[C@@H]2CN(C(=O)N2OS(=O)(=O)O)[C@@H]1C(N)=O",
    "unit.string": "h",
    "Tmax": 3
  }
]
